FYI, the data here is from patent US3946003A.

# PROCEDURE DETAILS: Duration of antibiotic blood levels in mice after single oral dose (agar disc-plate assay, Sarcina lutea)
# Format: in vivo
# APPLIED CONDITIONS: mouse, 20 min post administration, single oral dose 20 mg./kg.
READOUT TYPE: concentration at 20 min (ng/mL)
Express the result in ng/mL but write the number alone.

Query string: Entry Cc1nnc(SCC2=C(C(=O)O)N3C(=O)[C@@H](NC(=O)[C@H](N)c4ccc(O)cc4)[C@H]3SC2)s1 [compound 3] has what concentration at 20 min?
Result string: 13200

Query string: Recorded concentration at 20 min of Cc1nnc(SCC2=C(C(=O)O)N3C(=O)C(NC(=O)C(N)c4ccccc4)C3SC2)s1 (stereo not shown) [compound 4, reference compound] , please.
Result string: 3380

Query string: Item under review: Cn1nnnc1SCC1=C(C(=O)O)N2C(=O)[C@@H](NC(=O)[C@H](N)c3ccc(O)cc3)[C@H]2SC1 [compound 1] . Reported concentration at 20 min?
Result string: 5780

Continue with the next compound.
Query string: Which measured concentration at 20 min value corresponds to Cn1nnnc1SCC1=C(C(=O)O)N2C(=O)C(NC(=O)C(N)c3ccccc3)C2SC1 (stereo not shown) [compound 2, reference compound] ?
Result string: 750

* * *

Reported concentration at 10 min values follow for various molecules
# PROCEDURE DETAILS: Duration of antibiotic blood levels in mice after single oral dose (agar disc-plate assay, Sarcina lutea)
# Type: in vivo
# APPLIED CONDITIONS: mouse, 10 min post administration, single oral dose 20 mg./kg.
Report the value in ng/mL with no unit label.

Query string: Please report the recorded concentration at 10 min for Cc1nnc(SCC2=C(C(=O)O)N3C(=O)C(NC(=O)C(N)c4ccccc4)C3SC2)s1 (stereo not shown) [compound 4, reference compound] .
Result string: 1980

Others:
Query string: Requested read-out: concentration at 10 min. Entry: Cn1nnnc1SCC1=C(C(=O)O)N2C(=O)C(NC(=O)C(N)c3ccccc3)C2SC1 (stereo not shown) [compound 2, reference compound]
Result string: 260

Query string: For the molecule Cc1nnc(SCC2=C(C(=O)O)N3C(=O)[C@@H](NC(=O)[C@H](N)c4ccc(O)cc4)[C@H]3SC2)s1 [compound 3] , what concentration at 10 min is on record?
Result string: 10600

Query string: Any idea what its concentration at 10 min is? The molecule is Cn1nnnc1SCC1=C(C(=O)O)N2C(=O)[C@@H](NC(=O)[C@H](N)c3ccc(O)cc3)[C@H]2SC1 [compound 1]
Result string: 2560

* * *

Entries and their measured concentration at 1 h follow.
# PROCEDURE DETAILS: Duration of antibiotic blood levels in mice after single oral dose (agar disc-plate assay, Sarcina lutea)
# Assay type: in vivo
# APPLIED CONDITIONS: mouse, 60 min post administration, single oral dose 20 mg./kg.

Query string: What does the data say about its concentration at 1 h? Entry: Cn1nnnc1SCC1=C(C(=O)O)N2C(=O)[C@@H](NC(=O)[C@H](N)c3ccc(O)cc3)[C@H]2SC1
Result string: 8880 ng/mL

* * *

# PROCEDURE DETAILS: physchem
# APPLIED CONDITIONS: 6% dmf, pKa (second)
READOUT TYPE: pKa
# answer = number (no unit)

Query string: What value of measured pKa is listed for Cc1nnc(SCC2=C(C(=O)O)N3C(=O)[C@@H](NC(=O)[C@H](N)c4ccc(O)cc4)[C@H]3SC2)s1 [compound 3] ?
Result string: 7.6

* * *

Below, each of the compounds is paired with its reported Cmax value.
# PROCEDURE DETAILS: Duration of antibiotic blood levels in mice after single oral dose (agar disc-plate assay, Sarcina lutea)
# Format: in vivo
# APPLIED CONDITIONS: mouse, single oral dose 20 mg./kg., read-out: peak blood level

Query string: Which measured Cmax value corresponds to Cc1nnc(SCC2=C(C(=O)O)N3C(=O)[C@@H](NC(=O)[C@H](N)c4ccc(O)cc4)[C@H]3SC2)s1 ?
Result string: ~14300 ng/mL

Query string: What value of Cmax has been reported for the following compound? Cn1nnnc1SCC1=C(C(=O)O)N2C(=O)C(NC(=O)C(N)c3ccccc3)C2SC1 (stereo not shown) [compound 2, reference compound]
Result string: ~1200 ng/mL

Query string: I have this compound here, Cn1nnnc1SCC1=C(C(=O)O)N2C(=O)[C@@H](NC(=O)[C@H](N)c3ccc(O)cc3)[C@H]2SC1 , and I need its recorded Cmax.
Result string: ~8900 ng/mL

More entries:
Query string: Item under review: Cc1nnc(SCC2=C(C(=O)O)N3C(=O)C(NC(=O)C(N)c4ccccc4)C3SC2)s1 (stereo not shown) [compound 4, reference compound] . Reported Cmax?
Result string: ~4000 ng/mL

* * *

Recorded concentration at 1 h values for a group of compounds are listed next.
# PROCEDURE DETAILS: Duration of antibiotic blood levels in mice after single oral dose (agar disc-plate assay, Sarcina lutea)
# Format: in vivo
# APPLIED CONDITIONS: mouse, 60 min post administration, single oral dose 20 mg./kg.
Answer in ng/mL, number only, no unit symbol.

Below are worked cases with known answers.
Query string: Need concentration at 1 h, item Cc1nnc(SCC2=C(C(=O)O)N3C(=O)C(NC(=O)C(N)c4ccccc4)C3SC2)s1 (stereo not drawn) [compound 4, reference compound]
Result string: 2340

Query string: concentration at 1 h lookup needed for Cn1nnnc1SCC1=C(C(=O)O)N2C(=O)C(NC(=O)C(N)c3ccccc3)C2SC1 (stereo not drawn) [compound 2, reference compound] , thanks.
Result string: 890

Now let's try a different one.
Query string: Can you share its concentration at 1 h? I mean this compound: Cc1nnc(SCC2=C(C(=O)O)N3C(=O)[C@@H](NC(=O)[C@H](N)c4ccc(O)cc4)[C@H]3SC2)s1
Result string: 14300
